meta.source: ChEMBL document CHEMBL1201862

System: EKVX
Assay Protocol: NCI tumour cell line growth inhibition, 48 h
Activity calls are given as the source filed them. Rule as the data show it: active = GI50 up to about 1.1 µM and inactive = higher.
Hi there, use one of these labels in your reply, thanks! active, inactive

>  <Compound>
COc1cc(C(=O)C/C(CCC(=O)Nc2ccccc2[N+](=O)[O-])=N\NC(=O)CC#N)ccc1O

>  <Assigned Class>
inactive

$$$$
>  <Compound>
COc1cc(Br)c(/C=N\c2cccc3cc(OC)c(OC)cc23)cc1OC

>  <Assigned Class>
inactive

$$$$
>  <Compound>
Oc1ccc(-c2ccccc2)nn1

>  <Assigned Class>
inactive

$$$$
>  <Compound>
CN(C)CC(C)(C)C(/C=C/c1ccccc1)=N\Nc1ccccc1

>  <Assigned Class>
active

$$$$

What outcome does the record of this test show for Cc1cc(C)nc(NS(=O)(=O)c2ccc(NC(=O)c3cccc4c(Nc5ccc(S(=O)(=O)Nc6nc(C)cc(C)n6)cc5)c5ccccc5nc34)cc2)n1 ? inactive

----------
Test system: RXF 631
Assay Protocol: NCI tumour cell line growth inhibition, 48 h
Calls of active or inactive are those of the source. No stated cut-off is given here; in the data, active = GI50 up to about 1.1 µM and inactive = higher.
GI50 overview

What value of GI50 has been reported for the following compound? OC(CCNC12CC3CC(CC(C3)C1)C2)c1ccccc1 (configuration not stated) > 100 µM (inactive)

What value of GI50 has been reported for the following compound? CN(C)CCNC(=O)c1cccc2nc3ccc4ccccc4c3nc12 0.0405 µM (active)

What value of GI50 has been reported for the following compound? Cc1ccc(S(=O)(=O)N/N=c2\c(C)c(C3=NS(=O)(=O)c4cc(S(N)(=O)=O)c(Cl)cc4N3)oc3c(Cl)cc(Cl)cc23)cc1 79.1 µM (inactive)

What value of GI50 has been reported for the following compound? CC1OC(=O)N2CCC=CC12 (configuration not stated) > 100 µM (inactive)

What value of GI50 has been reported for the following compound? CCOC(=O)/C(=C\c1ccccc1)C(=O)CCN1CCOCC1 11.3 µM (inactive)

What value of GI50 has been reported for the following compound? CN1C(=O)CCC1(O)C1C=CC=CC1 (configuration not stated) > 100 µM (inactive)

What value of GI50 has been reported for the following compound? c1ccc(C2CC(c3ccc4ccccc4c3)=Nc3ccccc3S2)cc1 (configuration not stated) 24.3 µM (inactive)

What value of GI50 has been reported for the following compound? C#CC1(O)CC(c2ccccc2)N(C)C(c2ccccc2)C1 (configuration not stated) > 100 µM (inactive)

What value of GI50 has been reported for the following compound? O=C(CCN1CCN(c2cccc(Cl)c2)CC1)N1CCc2c([nH]c3ccccc23)C1c1cccnc1 (configuration not stated) 2.59 µM (inactive)

What value of GI50 has been reported for the following compound? OC(c1ccccc1)C1CC2C=CC1C2 (configuration not stated) > 100 µM (inactive)

What value of GI50 has been reported for the following compound? O=C1CC2CCCCC2=C1O (configuration not stated) > 100 µM (inactive)

What value of GI50 has been reported for the following compound? CC(=O)C1=C(O)C(N)C2Cc3c(c(O)c4c(O)c(C)ccc4c3C)C(=O)C2(O)C1=O (configuration not stated) 2.2 µM (inactive)

----------
Test system: OVCAR-4
Assay Protocol: NCI tumour cell line growth inhibition, 48 h
Calls of active or inactive are those of the source. No stated cut-off is given here; in the data, active = GI50 up to about 1.1 µM and inactive = higher.
GI50 overview

Tell me reported GI50 for COC(=O)CCC(=O)Nc1ccc(Cl)cc1C , tested with OVCAR-4. > 75.7 µM (inactive)

Tell me reported GI50 for O=C(CC1(O)C(=O)Nc2ccc([N+](=O)[O-])cc21)c1ccc2ccccc2c1 (stereo unspecified) , tested with OVCAR-4. > 100 µM (inactive)

Tell me reported GI50 for Cc1coc2c1C(OC(=O)C(C)C)C1(C)C(C)CCC(O)C1C2=O (stereo unspecified) , tested with OVCAR-4. > 100 µM (inactive)

Tell me reported GI50 for Clc1cccc(C2N3CCCCC3[C@@H]3c4[nH]c5ccccc5c4CCN23)c1 (stereo partly specified) , tested with OVCAR-4. 33.5 µM (inactive)

Tell me reported GI50 for O=[N+]([O-])C(/C(Cl)=C(/Cl)N1CCOCC1)=C1\Nc2ccccc2O1 , tested with OVCAR-4. > 100 µM (inactive)

----------
Test system: OVCAR-8
Assay Protocol: NCI tumour cell line growth inhibition, 48 h
Calls of active or inactive are those of the source. Cut-off read from the data, not from the text of the source: active = GI50 up to about 1.1 µM and inactive = higher.
Hi there, use one of these labels in your reply, thanks! Yes (active), No (inactive)

// known answers, use as guide
>  <Compound>
Nc1nc(N)c2nc(CNc3ccc(C(=O)NC(CCC(=O)O)C(=O)O)cc3F)cnc2n1 (stereo unspecified)

>  <Assigned Class>
Yes

$$$$
>  <Compound>
CCOC(=O)CC/C(=N/Nc1ccc(Cl)cc1[N+](=O)[O-])C(=O)OCC

>  <Assigned Class>
No

$$$$
>  <Compound>
c1ccc(/N=c2/[nH]c3ccccc3s/c2=N/c2ccccc2)cc1

>  <Assigned Class>
No

$$$$

What outcome does the record of this test show for CC(C)(C)c1c2c(c(C(C)(C)C)c3c1OCN(Cc1ccccc1)C3)OCN(Cc1ccccc1)C2 ? No

What outcome does the record of this test show for COc1cc2c3c(c1OC)C1(C=CC(=O)C=C1)C[C@H]3N(C)CC2 [PRONUCIFERINE] ? No

What outcome does the record of this test show for Nc1c(Cl)ncnc1NCCCNc1ncnc(Cl)c1N ? No

What outcome does the record of this test show for COC(=O)C(CCSC)NC(=O)CSc1nnc(COc2ccc(Cl)cc2)n1-c1ccccc1 (stereo unspecified) ? No

----------
System: OVCAR-8
Assay Protocol: NCI tumour cell line growth inhibition, 48 h
Calls of active or inactive are those of the source. No stated cut-off is given here; in the data, active = GI50 up to about 1.1 µM and inactive = higher.
Hi there, use one of these labels in your reply, thanks! class 1 for active, class 0 for inactive

>  <Compound>
Cc1ccc(S(=O)(=O)NCCCSCCO)cc1

>  <Assigned Class>
class 0

$$$$
>  <Compound>
C=CCC1(Sc2ccccn2)Sc2ccc3ccccc3c2-c2c(ccc3ccccc23)S1

>  <Assigned Class>
class 0

$$$$
>  <Compound>
CC1C2(C)OCC(C#N)(C(=N)O2)C1(C#N)C#N (stereo not drawn)

>  <Assigned Class>
class 0

$$$$
>  <Compound>
N=C(N)SCCc1cn2ccccc2n1

>  <Assigned Class>
class 0

$$$$
>  <Compound>
O=C(Nc1ccc(Cl)cc1Cl)C1C(=O)C(=O)N(c2ccc(Cl)cc2Cl)C1=O (stereo not drawn)

>  <Assigned Class>
class 0

$$$$
>  <Compound>
Cc1csc2n(C)c(=O)c3ccccc3[n+]12

>  <Assigned Class>
class 0

$$$$
>  <Compound>
COC(=O)Cc1ccc2c(c1)Sc1ccc(CC(=O)OC)cc1N2C

>  <Assigned Class>
class 0

$$$$
>  <Compound>
O=S(=O)(O)c1ccc([Se][Se]c2ccc(S(=O)(=O)O)cc2)cc1

>  <Assigned Class>
class 0

$$$$

Then this compound:
What outcome does the record of this test show for Cc1c2cc[n+](C)cc2c(C)c2c1sc1ccccc12 ? class 1

----------
System: SK-MEL-5
Assay Protocol: NCI tumour cell line growth inhibition, 48 h
Active and inactive are the calls of the source. No stated cut-off is given here; in the data, active = GI50 up to about 1.1 µM and inactive = higher.
GI50 overview

>  <Molecule>
COc1cc2c(c(O)c1OC)C(=O)C1CCC(=O)N1C2c1cccc2ccccc12 (stereo unspecified)

>  <Property Name>
GI50

>  <Result>
31.6 µM (inactive)

$$$$

What value of GI50 has been reported for the following molecule? CC(SC(=S)N1CCCC1)C(=O)Nc1nnc(-c2ccc(Cl)cc2)o1 (stereo unspecified) 29.5 µM (inactive)

What value of GI50 has been reported for the following molecule? COc1ccc(OC)c(/C=C(/C#N)c2ccccc2)c1 13.2 µM (inactive)

----------
Tested on: MCF7
Assay Protocol: NCI tumour cell line growth inhibition, 48 h
Active and inactive are the calls of the source. No stated cut-off is given here; in the data, active = GI50 up to about 1.1 µM and inactive = higher.
Hi there, use one of these labels in your reply, thanks! active, inactive

>  <Molecule>
CCOC(=O)/C(=C\c1ccccc1)C(=O)CCN1CCOCC1

>  <Assigned Class>
inactive

$$$$
>  <Molecule>
CC(C)(C)C1CCC2c3c([nH]c4ccccc34)C3C(=O)N(c4ccccc4[N+](=O)[O-])C(=O)C3C2C1 (stereo not given)

>  <Assigned Class>
inactive

$$$$
>  <Molecule>
O=C1C(Cl)=C(N2CCN(CCOCCO)CC2)C(=O)c2ccccc21

>  <Assigned Class>
inactive

$$$$
>  <Molecule>
FC(F)(F)c1ccccc1N1CCN(c2nc(-c3cccs3)nc3ccc(Br)cc23)CC1

>  <Assigned Class>
active

$$$$
>  <Molecule>
O/N=C1\CC2(N3CCOCC3)CCC1(c1ccccc1)CC2

>  <Assigned Class>
inactive

$$$$

What outcome does the record of this test show for COc1cc(C2c3cc4c(cc3OC(C)(N3CCCC3)C2C)OCO4)cc(OC)c1OC (stereo not given) ? active

What outcome does the record of this test show for O=C1/C(=C/c2ccc([N+](=O)[O-])cc2)CNC/C1=C\c1ccc([N+](=O)[O-])cc1 ? inactive

----------
GI50 overview
Test system: NCI/ADR-RES
Assay Protocol: NCI tumour cell line growth inhibition, 48 h
Activity calls are given as the source filed them. Rule as the data show it: active = GI50 up to about 1.1 µM and inactive = higher. Residues, ends and D or L forms follow the SMILES beside them. *: point of attachment. Boc = CC(C)(C)OC(=O)*; OBn = c1ccc(CO*)cc1; Bn = c1ccc(C*)cc1

>  <Compound>
COc1cc2oc(-c3ccc(O)cc3O)c(CC=C(C)C)c(=O)c2c(O)c1/C=C/C(C)C [ARTOCARPIN]

>  <GI50>
2.64 µM (inactive)

$$$$
>  <Compound>
COc1ccc(OC)c2c(=S)c3ccccc3[nH]c12

>  <GI50>
> 100 µM (inactive)

$$$$
>  <Compound>
CC(C)(C)OC(=O)NC(Cc1ccc(OCc2ccccc2)cn1)C(N)=O (stereo not given)

>  <GI50>
89.9 µM (inactive)

$$$$
>  <Compound>
CC(C)CC(NC(=O)C(Cc1ccccc1)NC(=O)C(COCc1ccccc1)NC(=O)OC(C)(C)C)C(=O)OCc1ccccc1 (stereo not drawn) (Boc-Ser(Bn)-Phe-Leu-OBn; configuration not given here)

>  <GI50>
> 100 µM (inactive)

$$$$
>  <Compound>
COC(=O)c1cc(S(=O)(=O)NC2=NNC(C)CN2)c(S)cc1Cl (stereo not given)

>  <GI50>
39.8 µM (inactive)

$$$$
>  <Compound>
CCCCCCC(C)CC(CCCCCC)NCCOC(=O)c1ccc([N+](=O)[O-])cc1 (stereo not given)

>  <GI50>
21.3 µM (inactive)

$$$$
>  <Compound>
C[C@@H]1C(O)CC[C@H](C)C12CC=CC2=O (stereo not given in full)

>  <GI50>
> 100 µM (inactive)

$$$$
>  <Compound>
COc1cc(C2CC(C)(Nc3ccccc3)Oc3cc4c(cc32)OCO4)cc(OC)c1OC (stereo not given)

>  <GI50>
0.277 µM (active)

$$$$
>  <Compound>
CCOC(=O)CCC(NC(=O)c1ccc(Nc2nc3ccccc3nc2C(=O)OCC)cc1)C(=O)OCC (stereo not given)

>  <GI50>
5.46 µM (inactive)

$$$$

Tell me reported GI50 for O=c1c2ccccc2c2c1c1c3ccccc3c(=O)c1c1c3ccccc3c(=O)c21 , tested with NCI/ADR-RES. > 100 µM (inactive)
